Source of measurements: PubChem BioAssay AID743287

# measurement.notes: primary screen for activators of insulin secretion dependent on glucose, INS-1E cells, GLuc reporter luminescence (AID 743287)
# cond: INS-1E GLuc reporter insulin secretion, 2-3 h, at 16.6 µM, hits give high values
Out of some 370,000 compounds screened, about 2,300 (0.62%) were called active. This is one part of a sample in which actives are shown more often than they occur.
Classify by measured activation: true if it is equal to or exceeds 20%, false if it is smaller.

Could you tell me if the measured activation of C=CCn1cc(Cl)cc(C(=O)Nc2ccccc2)c1=O reaches 20% or more?
true

Identify whether the reported activation of the following molecule is 20% or greater: COCCNc1nc(N)c([N+](=O)[O-])c(N2CCCCCC2)n1
true

Has C[C@@H]1CN([C@@H](C)CO)C(=O)c2cc(/C=C/c3ccccc3)cnc2O[C@H]1CN(C)C(=O)C1CCC1 a recorded activation greater than or equal to 20%?
false

Threshold query (activation >= 20%) on C[C@H](CO)N1C[C@H](C)[C@@H](CN(C)C(=O)Nc2ccnc(N3CCOCC3)c2)OCc2ccccc2-c2c(n(C)c3ccccc23)C1=O
false

Is reported activation greater than or equal to 20% here: CCCc1cc(-c2nc(-c3ccc(C)cc3)cs2)ccn1
true

Kindly determine if activation recorded for C[C@H](CO)N1C[C@H](C)[C@@H](CN(C)C(=O)C2CCCCC2)OCCCC[C@H](C)Oc2ccc(N(C)C)cc2C1=O is above or exactly 20%.
false

Hi team, for COc1cccc(-c2ccc(C#N)c(SCC(=O)NCCc3ccc(Cl)cc3)n2)c1 , is the recorded activation at or above 20%?
true

# bool: activation of COc1ccc(Cc2nnc(SCC(=O)Nc3ccc(C)c(C)c3)o2)cc1OC >= 20%
true

Hi, just wondering whether COc1cccc(CNC(=O)c2cc3c(c(-c4cccc(-c5ccc(C#N)cc5)c4)n2)[C@@H](CCO)N([S@](=O)C(C)(C)C)C3)c1 shows activation of 20% or higher.
false

Could you verify whether the entry Cc1ccccc1S(=O)(=O)N1CC(=O)N2[C@H](CO)[C@@H](c3ccc(C#Cc4ccccc4)cc3)[C@H]2C1 shows activation of no less than 20%?
false

Quick check, activation >= 20%? CC(C)c1ccc(NS(=O)(=O)c2cn(C)c(=O)n(C)c2=O)cc1
false

---

# measurement.notes: primary screen for activators of insulin secretion dependent on glucose, INS-1E cells, GLuc reporter luminescence (AID 743287)
# cond: INS-1E GLuc reporter insulin secretion, 2-3 h, at 16.6 µM
Hit rate of the full screen: of about 370,000 compounds, about 2,300 (0.62%) were called active.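 The calls were made as follows: active = lowest replicate activation of at least 40%, so every replicate reaches that level; inactive = the rest.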 Many of the other results were omitted from the sample, so actives are more common in it than they were.
Tick one outcome: t (active), f (inactive)

Hi team, can someone confirm the assay call for O=C(COc1cccc2c1CCNC2=O)NC1CCCCC1 ?
t

I'd appreciate the recorded outcome for Cc1ccnc(NS(=O)(=O)c2ccc(NC(=O)c3oc4ccccc4c3C)cc2)n1 from this test.
f

Please let me know the test result on file for C[C@@H]1CC=CC[C@H](c2ccc(F)cc2)NC(=O)[C@@H](Cc2ccccc2)N(C)C(=O)c2ccccc2O1 (mixture of isomers) .
f

So what was the verdict on CN(C)CC(=O)N1CC2(C1)[C@H](c1ccccc1)[C@H](CO)N2C(=O)C1CC1 in this test?
f

Assay outcome for CCOC(=O)c1cc(-c2ccc(Cl)s2)nc2c1c(C)nn2C : what was it?
t

Dear colleague, could you share the recorded outcome for O=C(Nc1ccc(C(F)(F)F)cc1)N[C@@H]1CC[C@H](CC(=O)N2CCCCC2)O[C@H]1CO when you have a moment?
f

Tell me the recorded outcome of this test for COc1ccc(CCNC(=O)NS(=O)(=O)c2ccc(C)cc2)cc1OC .
t

Identify the outcome logged in this assay for the compound shown: CCOC(=O)c1cnc2c(c(C)nn2CC)c1Cl
f

Hi, do you know how COc1ccc(CNC(=O)COC(=O)c2ccc(C)c(S(=O)(=O)N3CCOCC3)c2)cc1OC came out in this test?
f

Assay outcome for COc1ccc(CCNC(=O)CCc2ccccc2O)cc1OC : what was it?
t

Recorded test call requested for COc1cccc(C#Cc2ccc([C@@H]3[C@H]4CN(C(=O)Cc5ccccc5)CC(=O)N4[C@H]3CO)cc2)c1
f
